Test system: P. aeruginosa CANWARD-2011 96846
Assay type: cell-based, Pseudomonas aeruginosa
Experimental: Bacterial strains were either obtained from the American Type Culture Collection (ATCC), Canadian National Intensive Care Unit (CAN-ICU) surveillance study or the Canadian Ward Surveillance (CANWARD) study. […] The in vitro antibacterial activity of the compounds studied were assessed by broth microdilution susceptibility testing following CLSI guidelines. […]
Positions of bridges follow the written chain, without caps; N, C: chain ends. Non-standard residues stand in square brackets, D forms with d. Residues, ends and D or L forms follow the SMILES beside them. *: point of attachment. Octanoyl = CCCCCCCC(=O)*; Dab = NCC[C@H](N)C(=O)O
endpoint: MIC (µg/mL)
API: value field is a number in µg/mL; no unit string.

Quick one: MIC of CCCCCCCC(=O)NCC[C@H](NC(=O)CCCCCCC)C(=O)N[C@H](C(=O)N[C@@H](CCN)C(=O)N[C@H]1CCNC(=O)[C@H]([C@@H](C)O)NC(=O)[C@H](CCN)NC(=O)[C@H](CCN)NC(=O)[C@H](CC(C)C)NC(=O)[C@@H](Cc2ccccc2)NC(=O)[C@H](CCN)NC1=O)[C@@H](C)O [Compound 2, Dioctanoic Acid (Di-C8) Polymyxin] (Octanoyl-[Dab](Octanoyl)T[Dab][Dab][Dab][dF]L[Dab][Dab]T; lactam 4-C) ?
8

###

System: P. aeruginosa PAO1
Details: adjuvant alone, one value per checkerboard, in µg/mL
Positions of bridges follow the written chain, without caps; N, C: chain ends. Non-standard residues stand in square brackets, D forms with d. Residues, ends and D or L forms follow the SMILES beside them. *: point of attachment. Benzoyl(4-Ph) = O=C(c1ccc(-c2ccccc2)cc1)*; Lauroyl = CCCCCCCCCCCC(=O)*; Dab = NCC[C@H](N)C(=O)O; Butyryl = CCCC(=O)*
endpoint: MIC of adjuvant alone (MIC1, MIC2, MIC3, MIC4, MIC5, MICPMBN)

CC(C)C[C@@H]1NC(=O)[C@@H](Cc2ccccc2)NC(=O)[C@H](CCN)NC(=O)[C@@H](NC(=O)[C@H](CCN)NC(=O)[C@@H](NC(=O)[C@H](CCNC(=O)c2ccc(-c3ccccc3)cc2)NC(=O)c2ccc(-c3ccccc3)cc2)[C@@H](C)O)CCNC(=O)[C@H]([C@@H](C)O)NC(=O)[C@H](CCN)NC(=O)[C@H](CCN)NC1=O [Compound 5] ({Benzoyl(4-Ph)}-[Dab](Benzoyl(4-Ph))T[Dab][Dab][Dab][dF]L[Dab][Dab]T; lactam 4-C) ... 16
CC(C)C[C@@H]1NC(=O)[C@@H](Cc2ccccc2)NC(=O)[C@H](CCN)NC(=O)[C@@H](NC(=O)[C@H](CCN)NC(=O)[C@@H](N)[C@@H](C)O)CCNC(=O)[C@H]([C@@H](C)O)NC(=O)[C@H](CCN)NC(=O)[C@H](CCN)NC1=O [PMBN, polymyxin B nonapeptide, reference compound] (H-T[Dab][Dab][Dab][dF]L[Dab][Dab]T; lactam 3-C (inferred)) ... 128
CCCC(=O)NCC[C@H](NC(=O)CCC)C(=O)N[C@H](C(=O)N[C@@H](CCN)C(=O)N[C@H]1CCNC(=O)[C@H]([C@@H](C)O)NC(=O)[C@H](CCN)NC(=O)[C@H](CCN)NC(=O)[C@H](CC(C)C)NC(=O)[C@@H](Cc2ccccc2)NC(=O)[C@H](CCN)NC1=O)[C@@H](C)O [Compound 1, Dibutyric Acid (Di-C4) Polymyxin] (Butyryl-[Dab](Butyryl)T[Dab][Dab][Dab][dF]L[Dab][Dab]T; lactam 4-C) ... 128

Next up:
Quick one: MIC of adjuvant alone (MIC1, MIC2, MIC3, MIC4, MIC5, MICPMBN) of CCCCCCCCCCCC(=O)NCC[C@H](NC(=O)CCCCCCCCCCC)C(=O)N[C@H](C(=O)N[C@@H](CCN)C(=O)N[C@H]1CCNC(=O)[C@H]([C@@H](C)O)NC(=O)[C@H](CCN)NC(=O)[C@H](CCN)NC(=O)[C@H](CC(C)C)NC(=O)[C@@H](Cc2ccccc2)NC(=O)[C@H](CCN)NC1=O)[C@@H](C)O [Compound 3, Didodecanoic Acid (Di-C12) Polymyxin] (Lauroyl-[Dab](Lauroyl)T[Dab][Dab][Dab][dF]L[Dab][Dab]T; lactam 4-C) ?
32
